tested on: HEK293; assay: Inhibition of wild-type human SLACK expressed in HEK293 cells assessed as efficacy at 30 uM by thallium flux assay relative to control; type: cell-based
Calls of active or inactive are those of the source. The calls are words filed in the database; no cut-off is given here.
result type: Efficacy

Previously resolved entries follow.
> print(dat)
                   compound.structure.string  target.or.system  result.type  experimental.value
 1  CCOc1ccccc1S(=O)(=O)N1CC(c2noc(-c3ccc(F)cc3)n2)C1            HEK293     Efficacy                 45%
 2  CCOc1ccccc1S(=O)(=O)N1CC[C@@H](c2nc(-c3ccc(F)cc3)no2)C1            HEK293     Efficacy                 31%
 3  CCOc1ccccc1S(=O)(=O)N1CC(c2nc(-c3ccccn3)no2)C1            HEK293     Efficacy            inactive
 4  Cc1ccc2cccc(S(=O)(=O)N3CC(c4nc(-c5ccc(F)cc5)no4)C3)c2n1            HEK293     Efficacy                 99%
 5  CCOc1ccccc1S(=O)(=O)N1CC(c2nc(-c3ccc(C(F)(F)F)cc3)no2)C1            HEK293     Efficacy                 95%
 6  O=S(=O)(c1ccc(F)cc1)N1CC(c2nc(-c3ccsc3)no2)C1            HEK293     Efficacy            inactive
 7  CCOc1ccccc1S(=O)(=O)N1CC(c2nc(-c3ccc(Cl)cc3F)no2)C1            HEK293     Efficacy                 99%
 8  O=S(=O)(c1ccc(C(F)(F)F)cc1)N1CC(c2nc(-c3ccsc3)no2)C1            HEK293     Efficacy            inactive
 9  CCOc1ccccc1S(=O)(=O)N1CC(c2cc(-c3ccc(F)cc3)no2)C1            HEK293     Efficacy            inactive
10  CCCOc1ccccc1S(=O)(=O)N1CC(c2nc(-c3ccsc3)no2)C1            HEK293     Efficacy                 87%

Given the entry "O=S(=O)(c1ccccc1OCC1CC1)N1CC(c2nc(-c3ccc(F)cc3)no2)C1" , report its measured Efficacy.
95%

Reference for the values: ChEMBL document CHEMBL5390224
